Experiment: NCI Yeast Anticancer Drug Screen. Data for the mec2-1 strain (AID 157)
Conditions: S. cerevisiae mec2-1 strain, at 50.0 µM (retest, dose inferred, filed as 5.0), active compounds read high
About 79,000 compounds went through this panel and 15% of them were active in at least one assay; those are over-represented in the sample as a whole.
Label scheme for growth inhibition: class A (below 30%), class B (30% to below 90%), class C (90% or more)

Lookup: Assign a bin to `CC(C)S(=O)(=O)ON1C(=O)c2ccc(N(C)C)cc2C1=O`
Found: class B

Lookup: Assign a bin to `COc1c2c3c(ccnc3c3ccccc13)C(=O)N2C`
Found: class B

Lookup: Assign a bin to `CCC1(C)C(C#N)(C#N)C1(C#N)C#N`
Found: class C

Lookup: Assign a bin to `CCOc1ccc2nc3cc(Cl)ccc3[n+](C)c2c1`
Found: class B

Lookup: Assign a bin to `Cc1ccccc1Oc1ccccc1N`
Found: class A

Lookup: Assign a bin to `O=Cc1c(Cn2ccnc2)c2cc([N+](=O)[O-])ccc2n1Cc1ccccc1`
Found: class B

Lookup: Assign a bin to `CN(NC(=O)c1cccs1)C1=NCCCN1`
Found: class A

Lookup: Assign a bin to `CCCCCCNC(=S)N/N=C(\C)c1ccccn1`
Found: class C

Lookup: Assign a bin to `Brc1c2nc3ccccc3nc2n2ccc3ccccc3c12`
Found: class B

Lookup: Assign a bin to `COC(=O)c1cc(-c2ccc([N+](=O)[O-])cc2)c2c(=O)n(-c3ccccc3)[nH]c2n1`
Found: class B

Lookup: Assign a bin to `C=CCOC(=O)CCC(=O)N(CC)CC`
Found: class A

---

Test: NCI Yeast Anticancer Drug Screen. Data for the mec2-1 strain (AID 157)
Settings: S. cerevisiae mec2-1 strain, at 5.0 µM (retest, dose inferred, filed as 0.5), active compounds read high
About 79,000 compounds went through this panel and 15% of them were active in at least one assay; those are over-represented in the sample as a whole.
Provide the recorded growth inhibition for the entries that follow.
Answer with a number only, understood to be in %.

Lookup: Param item = `CCCCCN=Cc1c(O)c(O)c(C(C)C)c2cc(C)c(-c3c(C)cc4c(C(C)C)c(O)c(O)c(C=NCCCCC)c4c3O)c(O)c12` ; retrieve measured growth inhibition.
Found: -44

Lookup: Param item = `CN1CCN(CCCN)CC1` ; retrieve measured growth inhibition.
Found: -3

Lookup: Param item = `CS(=O)(=O)c1ccc(C[N+]23CN4CN(CN(C4)C2)C3)cc1` ; retrieve measured growth inhibition.
Found: 0

Lookup: Param item = `CCOc1nc(N)nc(C)c1N=Nc1ccc(Br)cc1` ; retrieve measured growth inhibition.
Found: 0

Lookup: Param item = NC1NCCC(=O)N1CCc1c[nH]c2ccccc12 (configuration not stated) ; retrieve measured growth inhibition.
Found: 7

Lookup: Param item = `O=S(=O)(c1ccccc1)n1cc(C[P+](c2ccccc2)(c2ccccc2)c2ccccc2)c2ccccc21` ; retrieve measured growth inhibition.
Found: -1

Lookup: Param item = `O=C(C[n+]1ccc2ccccc2c1)c1ccc2ccc3ccccc3c2c1` ; retrieve measured growth inhibition.
Found: 0

Lookup: Param item = `O=C(NC(OCc1ccccc1)(C(F)(F)F)C(F)(F)F)OCc1ccccc1` ; retrieve measured growth inhibition.
Found: -5

Lookup: Param item = `CS/C(=N\N=C(/C)c1ccccn1)N1CCN(c2ccccn2)CC1` ; retrieve measured growth inhibition.
Found: -1

Lookup: Param item = `c1ccc(N=Nc2n[nH]c3ccccc23)cc1` ; retrieve measured growth inhibition.
Found: -51

Lookup: Param item = `CC(C)=CCC/C(C)=C/COC(=O)Nc1ccccc1` ; retrieve measured growth inhibition.
Found: -13

Lookup: Param item = `O=S(=O)(Nc1nccs1)c1ccc(N=Cc2cn(Cc3ccccc3)c3ccccc23)cc1` ; retrieve measured growth inhibition.
Found: -3

Lookup: Param item = `CC(C)=CCC/C(=C/CC/C(C)=C/CCc1ccoc1)C(=O)O` ; retrieve measured growth inhibition.
Found: 3

Lookup: Param item = `CCN(CCCOc1ccccc1)CCN(CC)CCCOc1ccccc1` ; retrieve measured growth inhibition.
Found: 19

Lookup: Param item = `O=NNc1ccc(Sc2ccc3ccccc3c2)cn1` ; retrieve measured growth inhibition.
Found: 24

Lookup: Param item = CCC(/C=C/C(C)C1CCC2C3CC=C4C/C(=N/NC(N)=O)CCC4(C)C3CCC12C)C(C)C (configuration not stated) ; retrieve measured growth inhibition.
Found: -3

Lookup: Param item = `O=C(Nc1ccc(F)c(Cl)c1)Oc1ccc(Br)cc1Br` ; retrieve measured growth inhibition.
Found: 5

Lookup: Param item = `CCN1C2=NCCN2S(=O)(=O)c2ccccc21` ; retrieve measured growth inhibition.
Found: 9

Lookup: Param item = `CCOC(=O)c1[nH]c2c([N+](=O)[O-])cccc2c1[N+](=O)[O-]` ; retrieve measured growth inhibition.
Found: -16

Lookup: Param item = O=C(Nc1ccc([N+](=O)[O-])cc1[N+](=O)[O-])C(=O)C(C(=O)c1ccc(Cl)c(Cl)c1)C1OC(=O)c2ccccc21 (configuration not stated) ; retrieve measured growth inhibition.
Found: 25

Lookup: Param item = `COc1ccc2c(Cc3ccc(Cl)cc3)cncc2c1O` ; retrieve measured growth inhibition.
Found: 14

Lookup: Param item = `COC(=O)c1cn(NS(=O)(=O)c2ccc(OC)cc2)cc1C(=O)OC` ; retrieve measured growth inhibition.
Found: -5

---

Assay: NCI Yeast Anticancer Drug Screen. Data for the cln2 rad14 strain (AID 165);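 note: 0% = growth equal to vehicle treated cultures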
Settings: S. cerevisiae cln2 rad14 strain, at 50.0 µM, active compounds read high
Procedure: Growth inhibition of yeast strains with defined genetic alterations is measured as a screen for potential anti-cancer activity. Selected strains with alterations in DNA damage repair or cell cycle control were exposed to compounds and growth inhibition was measured relative to vehicle treated controls. The strain used in this assay is cln2 rad14
Compounds without any hit were thinned out: in the full panel of roughly 79,000, 15% have a hit.
parameter: growth inhibition (%)
Answer with a number only, understood to be in %.

Lookup: Param item = `O=S(=O)(c1cc(Cl)ccc1Cl)N1CCc2ccccc2C1` ; retrieve measured growth inhibition.
Found: -11.4

Lookup: Param item = `CCCCCc1cccc(CC(=O)OCC)n1` ; retrieve measured growth inhibition.
Found: 26.9

Lookup: Param item = `Cc1[nH]nc(-c2cccnc2)c1N=NN1CCOCC1` ; retrieve measured growth inhibition.
Found: 58.5

Lookup: Param item = `O=C(N/C(=C\c1ccc(/C=C(\NC(=O)c2ccccc2)c2nc3ccccc3s2)cc1)c1nc2ccccc2s1)c1ccccc1` ; retrieve measured growth inhibition.
Found: 84.7

Lookup: Param item = `Nc1nc(-c2ccccc2)cc(-c2ccccc2O)n1` ; retrieve measured growth inhibition.
Found: 69.2

Lookup: Param item = CCCCCCCCCCCCOC(=O)CC1CC(C(C)=O)C1(C)C (stereo unspecified) ; retrieve measured growth inhibition.
Found: 84.3

---

Experiment: NCI Yeast Anticancer Drug Screen. Data for the sgs1 mgt1 strain (AID 161);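 note: 0% = growth of cultures given vehicle only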
Conditions: S. cerevisiae sgs1 mgt1 strain, at 50.0 µM (retest, dose inferred, filed as 5.0), active compounds read high
The panel holds about 79,000 compounds, 15% with a hit somewhere; the sample as a whole holds those more often.
I would appreciate it if you labelled entries Condition met when growth inhibition is 50% or higher, otherwise Condition not met.

Lookup: Evaluate `Nc1nc(-c2ccccc2)cc(-c2ccccc2O)n1` : growth inhibition at minimum 50%?
Found: Condition not met

Lookup: Evaluate O=C(c1ccccc1)C1Cc2ccccc2C1=O (configuration not stated) : growth inhibition at minimum 50%?
Found: Condition not met

Lookup: Evaluate `Oc1cc(-[n+]2ccccc2)c(O)c2ccccc12` : growth inhibition at minimum 50%?
Found: Condition met

Lookup: Evaluate `CN(C)CCOc1cc2c(c3ccccc13)-c1ccccc1C2=O` : growth inhibition at minimum 50%?
Found: Condition met

Lookup: Evaluate O=C1C=C(Br)C(=O)C12CCc1ccccc12 (configuration not stated) : growth inhibition at minimum 50%?
Found: Condition met

Lookup: Evaluate NC(C(=O)O)C1=CCCCCC1 (configuration not stated) : growth inhibition at minimum 50%?
Found: Condition not met

Lookup: Evaluate `CCCCOC(=O)c1ccc(O)c(OC)c1` : growth inhibition at minimum 50%?
Found: Condition not met

Lookup: Evaluate `CCOc1ccc(N=Nc2ccccc2)cc1` : growth inhibition at minimum 50%?
Found: Condition not met

Lookup: Evaluate `O=NNc1ccc2cc3ccc(NN=O)cc3nc2c1` : growth inhibition at minimum 50%?
Found: Condition not met

Lookup: Evaluate C=C1C(O)C2(O)OCC34C(CC5C(C)=CC(=O)C(O)C5(C)C23)OC(=O)C(OC(=O)C/C=C/CCCCCCCC)C14 (configuration not stated) : growth inhibition at minimum 50%?
Found: Condition met

Lookup: Evaluate NC(=O)NCCCCC1NC(=S)N(c2ccccc2)C1=O (configuration not stated) : growth inhibition at minimum 50%?
Found: Condition not met

Lookup: Evaluate CCC(C)NCCNc1cc(OC)cc2cccnc12 (configuration not stated) : growth inhibition at minimum 50%?
Found: Condition not met
